Values from paper PMC6658769

Procedure summary: FTIH part B: plasma pharmacokinetics and accumulation after repeat dose
Condition parameters: human, po, 15 mg
Measured quantity: half-life at 14 days (h)
Unit h implied. Number only.

Which half-life at 14 days is reported for this compound? `NC[C@H]1OB(O)c2c(OCCO)ccc(Cl)c21`
37

* * *

Procedure summary: clinical
Condition parameters: both, human, in vivo, 15 mg, steady-state AUC (on average)
Measured quantity: AUC (ng·h/mL)
Unit ng·h/mL implied. Number only.

Which AUC is reported for this molecule? NC[C@H]1OB(O)c2c(OCCO)ccc(Cl)c21 [GSK3036656]
4460

* * *

Procedure summary: clinical
Condition parameters: human, in vivo, po, 25 mg
Measured quantity: Tmax (h)
Unit h implied. Number only.

Which Tmax is reported for this compound? `NC[C@H]1OB(O)c2c(OCCO)ccc(Cl)c21`
1.1

* * *

Procedure summary: clinical
Condition parameters: human, in vivo, po, 25 mg
Measured quantity: Cmax (ng/mL)
Unit ng/mL implied. Number only.

Which Cmax is reported for this compound? `NC[C@H]1OB(O)c2c(OCCO)ccc(Cl)c21`
207

* * *

Procedure summary: clinical
Condition parameters: human, in vivo, po, 5 mg, AUC0–∞, geometric LS mean, Ref
Measured quantity: AUC(0-inf) (µg·h/mL)
Unit µg·h/mL implied. Number only.

Which AUC(0-inf) is reported for this compound? NC[C@H]1OB(O)c2c(OCCO)ccc(Cl)c21 [GSK3036656]
1.43

* * *

Procedure summary: clinical
Condition parameters: human, in vivo, po, 5 mg
Measured quantity: Cmax (µg/mL)
Unit µg/mL implied. Number only.

Which Cmax is reported for this compound? `NC[C@H]1OB(O)c2c(OCCO)ccc(Cl)c21`
0.0484
